# experimentalTarget: recombinant human MAO-A (Homo sapiens, UniProt P21397)
# Sequence (P21397 whole entry): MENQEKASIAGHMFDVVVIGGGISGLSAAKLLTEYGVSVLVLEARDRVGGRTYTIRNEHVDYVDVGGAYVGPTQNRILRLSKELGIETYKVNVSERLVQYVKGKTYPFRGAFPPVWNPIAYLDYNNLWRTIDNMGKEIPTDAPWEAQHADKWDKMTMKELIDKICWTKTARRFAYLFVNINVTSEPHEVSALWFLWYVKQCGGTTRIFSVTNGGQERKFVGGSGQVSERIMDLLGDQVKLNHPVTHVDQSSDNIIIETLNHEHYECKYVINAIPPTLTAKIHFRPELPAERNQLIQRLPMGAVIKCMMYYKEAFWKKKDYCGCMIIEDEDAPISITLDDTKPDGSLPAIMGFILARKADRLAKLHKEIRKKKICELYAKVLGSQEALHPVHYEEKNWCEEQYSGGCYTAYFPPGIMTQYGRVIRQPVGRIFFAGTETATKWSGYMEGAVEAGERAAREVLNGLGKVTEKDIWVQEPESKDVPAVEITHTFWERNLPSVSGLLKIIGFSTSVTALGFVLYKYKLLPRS
# assayComment: MAO-A inhibition assay (kynuramine oxidative deamination)
# runParameters: kynuramine 80 μM; mean ± S.D. of at least triplicate observations
propertyMeasured: IC50 (µM)

Below are worked cases with known answers.
# molecule, recordedNumber
rows = [
    ("C[C@@H]1O[C@@H](O[C@@H]2[C@@H](O)[C@H](O)[C@@H](CO)O[C@H]2c2c(O)cc(O)c3c(=O)cc(-c4ccc(O)cc4)oc23)[C@H](O)[C@H](O)[C@H]1O [Rhamnosylvitexin]", 40.9),
    ("COc1cc(-c2cc(=O)c3c(O)cc(O[C@@H]4O[C@H](CO)[C@@H](O)[C@H](O)[C@H]4O)cc3o2)cc(OC)c1O [Tricin-7-glucoside]", 50.9),
    ("COc1cc(O)c2c(=O)cc(-c3ccc(O)c(OC)c3)oc2c1 [Vetulin]", 18.8),
]

(1) O=C(/C=C/c1ccc(O)cc1)OC[C@H]1O[C@@H](Oc2cc(O)c3c(=O)cc(-c4ccc(O)cc4)oc3c2)[C@H](O)[C@@H](O)[C@@H]1O
(2) COc1ccc(-c2cc(=O)c3c(O)cc(O)cc3o2)cc1 [Acacetin]
// which entry reports the smaller IC50, 1 or 2 ? Output the label that corresponds to your choice.
2
(2: 0.115 µM, 1: 22.5 µM)
